A collection of compounds and their measured Papp A→B
# Tested on: MDR1
# assay method text: in vitro
# Assay type: in vitro ADME, canine
# condition notes: dog, MDCK-MDR1, pH 7.4, Papp AB
# Method: The potency of macrocycles 1–12 to inhibit the growth of L. infantum was determined in a phenotypic assay in which the parasite was grown in primary peritoneal mouse macrophages (PMMs). To understand whether the SAR for inhibition of parasitic growth is impacted by low cell permeability, the permeability of compounds 1–12 was determined separately. […]
Entry rule: numbers only, all in ×10⁻⁶ cm/s.

Past entries and their recorded results:
smiles code	measurement target	Papp A→B (×10⁻⁶ cm/s)
CC(C)C[C@@H]1NC(=O)[C@@H](NC(=O)OC(C)(C)C)Cc2ccc(cc2)Oc2ccc(cc2NC(=O)c2ccccn2)C(=O)CNC1=O	MDR1	2.2
CC(C)(C)OC(=O)N[C@H]1Cc2ccc(cc2)Oc2ccc(cc2NC(=O)c2ccccn2)C(=O)CNC(=O)[C@H](c2ccccc2)NC1=O	MDR1	0.4
CC(C)(C)OC(=O)N[C@H]1Cc2ccc(cc2)Oc2ccc(cc2)C(=O)CNC(=O)[C@H](Cc2ccccc2)NC1=O	MDR1	5
CC(C)(C)OC(=O)N[C@H]1Cc2ccc(cc2)Oc2ccc(cc2NC(=O)c2ccccn2)C(=O)CNC(=O)[C@H](Cc2ccccc2)NC1=O	MDR1	3.5
CC(=O)N[C@H]1Cc2ccc(cc2)Oc2ccc(cc2NC(=O)c2ccccn2)C(=O)CNC(=O)[C@H](Cc2ccccc2)NC1=O	MDR1	1.1

Recorded result, CC(C)(C)OC(=O)N[C@H]1Cc2ccc(cc2)Oc2ccc(cc2NC(=O)c2ccccn2)C(=O)CNC(=O)[C@@H](Cc2ccccc2)NC1=O , Papp A→B: 2.9

Recorded result, CC(C)(C)OC(=O)N[C@H]1CCc2ccc(cc2)Oc2ccc(cc2NC(=O)c2ccccn2)C(=O)CNC(=O)[C@H](Cc2ccccc2)NC1=O , Papp A→B: 1.3

Recorded result, CC(=O)Nc1cc2ccc1Oc1ccc(cc1)C[C@H](NC(=O)OC(C)(C)C)C(=O)N[C@@H](Cc1ccccc1)C(=O)NCC2=O , Papp A→B: 0.7

Recorded result, CC(C)(C)C(=O)N[C@H]1Cc2ccc(cc2)Oc2ccc(cc2NC(=O)c2ccccn2)C(=O)CNC(=O)[C@H](Cc2ccccc2)NC1=O , Papp A→B: 1.5

Recorded result, C[C@@H]1NC(=O)[C@@H](NC(=O)OC(C)(C)C)Cc2ccc(cc2)Oc2ccc(cc2NC(=O)c2ccccn2)C(=O)CNC1=O , Papp A→B: 1.4

###

# assay method text: Chromatographic Log D at pH 7.4
# Type: physicochemical
# condition notes: 1-octanol/PBS pH 7.4, determined by chromatography, mean of two measurements
A collection of compounds and their measured chromatographic logD
Lab note: record the figure alone, no unit after it.

smiles code	chromatographic logD
CC(C)(C)C(=O)N[C@H]1Cc2ccc(cc2)Oc2ccc(cc2NC(=O)c2ccccn2)C(=O)CNC(=O)[C@H](Cc2ccccc2)NC1=O	4.4
CC(C)(C)OC(=O)N[C@H]1CCc2ccc(cc2)Oc2ccc(cc2NC(=O)c2ccccn2)C(=O)CNC(=O)[C@H](Cc2ccccc2)NC1=O	4.8
CC(C)(C)OC(=O)N[C@H]1Cc2ccc(cc2)Oc2ccc(cc2NC(=O)c2ccccn2)CCNC(=O)[C@H](Cc2ccccc2)NC1=O	5.1
COc1ccc(C[C@H](NC(=O)OC(C)(C)C)C(=O)N[C@@H](Cc2ccccc2)C(=O)NCC(=O)c2cccc(NC(=O)c3ccccn3)c2)cc1	4.7
CC(C)(C)OC(=O)N[C@H]1Cc2ccc(cc2)Oc2ccc(cc2NC(=O)c2ccccn2)C(=O)CNC(=O)[C@H](c2ccccc2)NC1=O	4.4

Recorded result, CC(C)(C)OC(=O)N[C@H]1Cc2ccc(cc2)Oc2ccc(cc2NC(=O)c2ccccn2)C(=O)CNC(=O)[C@@H](Cc2ccccc2)NC1=O , chromatographic logD: 4.8

Recorded result, C[C@@H]1NC(=O)[C@@H](NC(=O)OC(C)(C)C)Cc2ccc(cc2)Oc2ccc(cc2NC(=O)c2ccccn2)C(=O)CNC1=O , chromatographic logD: 3.5

Recorded result, CC(C)(C)OC(=O)N[C@H]1Cc2ccc(cc2)Oc2ccc(cc2)C(=O)CNC(=O)[C@H](Cc2ccccc2)NC1=O , chromatographic logD: 4

Recorded result, CC(C)(C)OC(=O)N[C@H]1Cc2ccc(cc2)Oc2ccc(cc2NC(=O)c2ccccn2)C(=O)CNC(=O)[C@H](Cc2ccccc2)NC1=O , chromatographic logD: 4.9

###

# Test system: MDR1
# assay method text: in vitro
# Type: in vitro ADME, canine
# condition notes: dog, MDCK-MDR1, pH 7.4, MDCK-MDR1 cell monolayer; read-out: ER, efflux ratio (BA/AB)
# Description: The potency of macrocycles 1–12 to inhibit the growth of L. infantum was determined in a phenotypic assay in which the parasite was grown in primary peritoneal mouse macrophages (PMMs). To understand whether the SAR for inhibition of parasitic growth is impacted by low cell permeability, the permeability of compounds 1–12 was determined separately. […]
outcome measure: efflux ratio
Lab note: record the figure alone, no unit after it.

Recorded result, CC(=O)N[C@H]1Cc2ccc(cc2)Oc2ccc(cc2NC(=O)c2ccccn2)C(=O)CNC(=O)[C@H](Cc2ccccc2)NC1=O , efflux ratio: 16

###

# System: L. infantum
# assay method text: Growth of L. infantum in infected primary mouse macrophages (PMMs), phenotypic assay
# Assay type: cell-based, Leishmania infantum
# condition notes: Leishmania infantum, Macrophage; CSV supplement; decimal comma; read-out: EC50 L. infantum MHOM/MA(BE)/67
outcome measure: pEC50
Bear in mind: pEC50 is minus log10 of a mol/L concentration; give just that figure.

smiles code	pEC50
C[C@@H]1NC(=O)[C@@H](NC(=O)OC(C)(C)C)Cc2ccc(cc2)Oc2ccc(cc2NC(=O)c2ccccn2)C(=O)CNC1=O	4.81
CC(C)(C)OC(=O)N[C@H]1Cc2ccc(cc2)Oc2ccc(cc2NC(=O)c2ccccn2)CCNC(=O)[C@H](Cc2ccccc2)NC1=O	4.91
CC(C)(C)OC(=O)N[C@H]1Cc2ccc(cc2)Oc2ccc(cc2)C(=O)CNC(=O)[C@H](Cc2ccccc2)NC1=O	4.48
CC(C)(C)OC(=O)N[C@H]1CCc2ccc(cc2)Oc2ccc(cc2NC(=O)c2ccccn2)C(=O)CNC(=O)[C@H](Cc2ccccc2)NC1=O	4.78

# context switch: different compound, same pEC50
Recorded result, CC(=O)N[C@H]1Cc2ccc(cc2)Oc2ccc(cc2NC(=O)c2ccccn2)C(=O)CNC(=O)[C@H](Cc2ccccc2)NC1=O , pEC50: 4.43

###

# assay method text: Kinetic solubility in phosphate buffered saline at pH 7.4
# Type: physicochemical
# condition notes: phosphate buffered saline, pH 7.4, phosphate buffered saline pH 7.4, assay range 2.5–200 μM; read-out: solubility (kinetic)
# Procedure: The kinetic solubility in phosphate buffered saline at pH 7.4, chromatographic Log D at pH 7.4, cell permeability across a MDCK-MDR1 cell monolayer at pH 7.4, and the clearance in mouse liver microsomes of 1–12 was determined at TCG Lifesciences.
A collection of compounds and their measured solubility kinetic
Entry rule: numbers only, all in µM.

Past entries and their recorded results:
smiles code	unit abbrev	result
CC(C)(C)C(=O)N[C@H]1Cc2ccc(cc2)Oc2ccc(cc2NC(=O)c2ccccn2)C(=O)CNC(=O)[C@H](Cc2ccccc2)NC1=O	µM	16
CC(C)(C)OC(=O)N[C@H]1Cc2ccc(cc2)Oc2ccc(cc2)C(=O)CNC(=O)[C@H](Cc2ccccc2)NC1=O	µM	44
COc1ccc(C[C@H](NC(=O)OC(C)(C)C)C(=O)N[C@@H](Cc2ccccc2)C(=O)NCC(=O)c2cccc(NC(=O)c3ccccn3)c2)cc1	µM	7.3
CC(C)(C)OC(=O)N[C@H]1Cc2ccc(cc2)Oc2ccc(cc2NC(=O)c2ccccn2)C(=O)CNC(=O)[C@H](c2ccccc2)NC1=O	µM	16

# context switch: different compound, same solubility kinetic
Recorded result, CC(C)(C)OC(=O)N[C@H]1Cc2ccc(cc2)Oc2ccc(cc2NC(=O)c2ccccn2)CCNC(=O)[C@H](Cc2ccccc2)NC1=O , solubility kinetic: 5.9

###

# System: T. b. brucei
# assay method text: Growth of T. b. brucei trypomastigotes in axenic culture
# Type: cell-based
# condition notes: Trypanosoma brucei; Table S1; mean (SD), 2 to 14 measurements; unit not given in Table S1; read-out: In vitro potency, T. b. brucei
A collection of compounds and their measured pEC50
Bear in mind: pEC50 is minus log10 of a mol/L concentration; give just that figure.

compound	measurement target	pEC50
COc1ccc(C[C@H](NC(=O)OC(C)(C)C)C(=O)N[C@@H](Cc2ccccc2)C(=O)NCC(=O)c2cccc(NC(=O)c3ccccn3)c2)cc1 [Compound 4]	T. b. brucei	4.48

Recorded result, CC(C)(C)OC(=O)N[C@H]1Cc2ccc(cc2)Oc2ccc(cc2NC(=O)c2ccccn2)CCNC(=O)[C@H](Cc2ccccc2)NC1=O [Compound 6] , pEC50: 4.92

Recorded result, CC(C)(C)OC(=O)N[C@H]1Cc2ccc(cc2)Oc2ccc(cc2NC(=O)c2ccccn2)C(=O)CNC(=O)[C@H](Cc2ccccc2)NC1=O [Compound 3] , pEC50: 4.82

Recorded result, CC(C)(C)C(=O)N[C@H]1Cc2ccc(cc2)Oc2ccc(cc2NC(=O)c2ccccn2)C(=O)CNC(=O)[C@H](Cc2ccccc2)NC1=O [Compound 12] , pEC50: 4.52

Recorded result, CC(=O)N[C@H]1Cc2ccc(cc2)Oc2ccc(cc2NC(=O)c2ccccn2)C(=O)CNC(=O)[C@H](Cc2ccccc2)NC1=O [Compound 11] , pEC50: 4.44
